Overview of recorded protein stability index for various variants
B1: ZNF8 (parent)
chain: VHVIGVEEPSVGASMLFDIREST

Variants of: B1
measurement protocol: protein stability index of a GFP-peptide fusion (GPS, HEK-293T) (PSI 1-6); higher = more stable;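 note: lentivirally expressed fusions sorted by FACS into six bins by GFP to DsRed ratio, PSI derived from sequencing read proportions per bin multiplied by bin number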
experimental conditions: c terminus: native

variant designation | protein stability index
T23P | 2.04
E21T | 2.01
V1I | 2
G12Y | 2.95
I19T | 2.91
I19L | 2.04
V6C | 1.96
V3H | 3.02
D18M | 2.02
S10K | 1.99
